Each entry below carries its reported TIME.
assayed_target: Quinolone resistance protein NorA (Staphylococcus aureus) (UniProt P0A0J7)
test_summary: Inhibition of wild type Staphylococcus aureus NCTC8325-4 NorA assessed as time taken to inhibit ethidium bromide efflux by measuring fluorescence at 100 uM relative to control
Expressed in h, but write only the number.

Q) Record lookup: for Quinolone resistance protein NorA (Staphylococcus aureus) (UniProt P0A0J7), what TIME belongs to N#CC(C#N)=NNc1cccc(Cl)c1 ?
A) 0.0833

* * *

assayed_target: Quinolone resistance protein NorA (Staphylococcus aureus)
test_summary: Inhibition of wild type Staphylococcus aureus NCTC8325-4 NorA assessed as time taken to inhibit ethidium bromide efflux by measuring fluorescence at 100 uM relative to control
measured_metric: TIME
Write your answer as a measured quantity: the number, then the unit.

Take a look at these entries with their results.
> print(dat)
                                   compound  value.reported
1  COc1cc2oc(-c3ccc(O)cc3)cc(=O)c2c(O)c1C [8-DEMETHYLSIDEROXYLIN]        0.0833 h
2    COc1cc(O)c2c(=O)cc(-c3ccc(O)cc3)oc2c1C        0.0833 h

Now for the compound whose TIME we want.
Q) # TIME lookup, item COc1c(C)c(O)c2c(=O)cc(-c3ccc(O)cc3)oc2c1C
A) 0.0833 h
